Parameter: INHIBITION. Scope: all listed entries.
system: Plasmodium berghei; experiment: Screen against P. berghei liver stage (PbLuc), transformed with Luciferase, at 2uM; format: functional, HepG2; settings: tested at 2 uM
The campaign covered roughly 68,000 compounds. About 2,700 (4%) showed an effect of 50% or more. What follows is part of a selection rich in strong results, with near analogues and random picks from the rest.
experimental-readout: INHIBITION

[
  {
    "compound": "CCc1nc(CC(=O)N2CCCCC2Cn2cccn2)cs1 (configuration not stated)",
    "tested-target": "Plasmodium berghei",
    "measured-value": "21.12%"
  },
  {
    "compound": "CN(C)C(=O)CO[C@@H]1CN(Cc2ccccc2)[C@@H]2CCCO[C@@H]21",
    "tested-target": "Plasmodium berghei",
    "measured-value": "52.66%"
  },
  {
    "compound": "Cc1nn(CCC(=O)NC2CCCOC2)c(C)c1C (configuration not stated)",
    "tested-target": "Plasmodium berghei",
    "measured-value": "-3.15%"
  },
  {
    "compound": "Cc1nc(CC(=O)N2CCCCC2Cn2cccn2)cs1 (configuration not stated)",
    "tested-target": "Plasmodium berghei",
    "measured-value": "60.64%"
  },
  {
    "compound": "O=C1COc2c(cccc2C(=O)N2CCCCC2Cn2cccn2)N1 (configuration not stated)",
    "tested-target": "Plasmodium berghei",
    "measured-value": "63.93%"
  },
  {
    "compound": "O=C(CCOc1ccc(F)cc1)N1CCCC1Cn1cccn1 (configuration not stated)",
    "tested-target": "Plasmodium berghei",
    "measured-value": "70.27%"
  },
  {
    "compound": "COc1ccc(OCCC(=O)N2CCCC2Cn2cccn2)cc1 (configuration not stated)",
    "tested-target": "Plasmodium berghei",
    "measured-value": "-28.79%"
  },
  {
    "compound": "Cc1nc(CC(=O)N2CCCC2Cn2cccn2)cs1 (configuration not stated)",
    "tested-target": "Plasmodium berghei",
    "measured-value": "34.53%"
  },
  {
    "compound": "CCc1ncc(C(=O)N2CCCC2Cn2cccn2)s1 (configuration not stated)",
    "tested-target": "Plasmodium berghei",
    "measured-value": "17.31%"
  },
  {
    "compound": "CCCc1n[nH]c(C2CN(C(=O)CCn3cc(C)cn3)CCO2)n1 (configuration not stated)",
    "tested-target": "Plasmodium berghei",
    "measured-value": "14.21%"
  },
  {
    "compound": "O=C(CCOc1cccc(F)c1)N1CCCC1Cn1cccn1 (configuration not stated)",
    "tested-target": "Plasmodium berghei",
    "measured-value": "8.37%"
  },
  {
    "compound": "CN(C)C(=O)CO[C@H]1CN(Cc2ccc(F)cc2)[C@@H]2CCCO[C@H]12",
    "tested-target": "Plasmodium berghei",
    "measured-value": "-84.27%"
  }
]
